test: physchem; settings: buffer, pH 7
Positions of bridges follow the written chain, without caps; N, C: chain ends. Non-standard residues stand in square brackets, D forms with d. Residues, ends and D or L forms follow the SMILES beside them. *: point of attachment. Benzoyl(4-F) = O=C(c1ccc(F)cc1)*; Mpa = O=C(O)CCS
Experimental readout: half-life at 1 mM

Just so you know, measured half-life at 1 mM for CC[C@H](C)[C@@H]1NC(=O)[C@H](Cc2ccc(O)cc2)NC(=O)[C@@H](N)CSSC[C@@H](C(=O)N2CCC[C@H]2C(=O)N[C@@H](CCCCNC(=O)CON=Cc2ccc(F)cc2)C(=O)NCC(N)=O)NC(=O)[C@H](CC(N)=O)NC(=O)[C@H](CCC(N)=O)NC1=O [OTK^8[Aoa-FBA]] came out at > 600 min

Short answer for CC[C@H](C)[C@@H]1NC(=O)[C@H](Cc2ccc(O)cc2)NC(=O)CCSSC[C@@H](C(=O)N2CCC[C@H]2C(=O)N[C@@H](CCCCNC(=O)c2ccc(F)cc2)C(=O)NCC(N)=O)NC(=O)[C@H](CC(N)=O)NC(=O)[C@H](CCC(N)=O)NC1=O [dOTK^8[SFB]] ([Mpa]YIQNCPK(Benzoyl(4-F))G-NH2; disulfide 1-6) : half-life at 1 mM was > 600 min

The measured half-life at 1 mM associated with CC[C@H](C)[C@@H]1NC(=O)[C@H](Cc2ccc(O)cc2)NC(=O)[C@@H](N)CSSC[C@@H](C(=O)N2CCC[C@H]2C(=O)N[C@@H](CC(C)C)C(=O)NCC(N)=O)NC(=O)[C@H](CC(N)=O)NC(=O)[C@H](CCC(N)=O)NC1=O [OT, oxytocin, reference compound] reads > 600 min

Next:
half-life at 1 mM in this record for CC[C@H](C)[C@@H]1NC(=O)[C@H](Cc2ccc(O)cc2)NC(=O)[C@@H](N)CSSC[C@@H](C(=O)N2CCC[C@H]2C(=O)N[C@@H](CCCCNC(=O)CON=C[C@H](F)[C@@H](O)[C@H](O)[C@H](O)CO)C(=O)NCC(N)=O)NC(=O)[C@H](CC(N)=O)NC(=O)[C@H](CCC(N)=O)NC1=O [OTK^8[Aoa-FDG]] : > 600 min
